Each recorded value in this set is attributed to patent US20200283507A1.

- target: T1, Hu/GII.6/Bethesda/2012/U.S. VLP (human norovirus GII.6)
- T1 construct: mature; baculovirus VLP; VP2 may be present
- procedure details: VLP ELISA
experimental readout: minimum concentration of VHH able to recognize 100 ng of VLP (ng/well)
Please give a number only; it is taken to be in ng/well.

Examples with answers:
>>> obs_value("VHH 19 (VHH, MD2004 library, subtractive biopanning; His6 tag; also called 19.1; clone 19) VHH: QVKLQQSGGGLVQPGGSLRLSCAASGFTFRNYAMSWVRQAPGKGLEWVSAIAAGGAVTKYADSVKGRFTISRDNARDTLYLQMNSLKPEDTAVYYCAKPRDFWYSPEFDFRGQGTQVTVSS")
2
>>> obs_value("VHH 4.1 (VHH, llama VHH, MD2004 library; pHEN6, C-terminal His6 tag; also called clone 4.1) VHH: QVKLQQSGGGLVQPGGSLRLSCAASESTISINTLGWYRQAPGNQRELVATITTGGTTNYADSVKGRFTISRDNAKNTVYLQMNNLEPGDTAVYYCNLKRRDLQSRFGGYWGQGTQVTVSS")
2
>>> obs_value("VHH 3.2 (VHH, llama VHH, MD2004 library; pHEN6, C-terminal His6 tag; also called clone 3.2) VHH: QVQLQESGGGLVQPGGSLRLSCAASESTPSINTMGWYRQAPGKERELVATITSGGMTNYADSVKGRFTISRDNGKNTVYLQMNSLEPGDTAVYYCNLKRRDLQARFGGYWGQGTQVTVSS")
0.5
>>> obs_value("VHH 5.4 (VHH, llama VHH, MD2004 library; pHEN6, C-terminal His6 tag; also called clone 5.4) VHH: QVQLQQSGGGLVQPGGSLRLSCVASESTVSINIMGWYRQAPGKQRELVATITTGGTTNYADSVKGRFTISRDNAKNTVYLQMNSLEPEDTAVYYCNLKRRDLQARFGGYWGQGTQVTVSS")
1

Pending binder:
q: minimum concentration of VHH able to recognize 100 ng of VLP lookup needed for VHH 7.5 (VHH, llama VHH, MD2004 library; pHEN6, C-terminal His6 tag; also called clone 7.5) VHH: QVKLQESGGGLVQAGESLRLSCAASGSNFSINGVGWYRQAPGKQRELVAGITNGGYTSYADSVKGRFTISTDNAKNTVYLQMNSLRPEDTAVYYCNANFQIHRSGADYVRNYWGQGTQVTVSA , thanks.
a: 1
